STUDY_SYSTEM: Lutropin-choriogonadotropic hormone receptor (Homo sapiens)
Sequence (P22888 whole entry): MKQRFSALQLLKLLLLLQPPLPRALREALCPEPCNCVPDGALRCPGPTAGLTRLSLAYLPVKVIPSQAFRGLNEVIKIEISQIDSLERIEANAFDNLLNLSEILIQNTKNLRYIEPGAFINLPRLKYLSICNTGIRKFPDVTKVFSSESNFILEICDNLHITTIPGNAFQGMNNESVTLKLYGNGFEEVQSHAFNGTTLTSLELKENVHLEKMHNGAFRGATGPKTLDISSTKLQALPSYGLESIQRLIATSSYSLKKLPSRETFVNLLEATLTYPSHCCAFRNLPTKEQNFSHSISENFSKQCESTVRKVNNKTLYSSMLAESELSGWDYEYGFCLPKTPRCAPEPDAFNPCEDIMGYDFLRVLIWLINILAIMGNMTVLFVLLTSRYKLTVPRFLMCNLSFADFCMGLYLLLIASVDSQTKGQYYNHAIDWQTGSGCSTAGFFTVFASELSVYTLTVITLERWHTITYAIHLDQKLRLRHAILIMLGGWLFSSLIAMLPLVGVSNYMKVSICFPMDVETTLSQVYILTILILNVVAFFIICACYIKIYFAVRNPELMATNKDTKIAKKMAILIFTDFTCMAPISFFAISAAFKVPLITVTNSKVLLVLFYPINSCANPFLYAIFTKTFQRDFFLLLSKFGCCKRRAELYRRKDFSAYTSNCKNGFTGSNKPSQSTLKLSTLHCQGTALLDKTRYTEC
PROTOCOL_TEXT: Negative allosteric modulation of human luteinizing hormone receptor assessed as reduction in Org 43553-induced agonist activity preincubated for 20 mins followed by 1 times EC80 of agonist addition and measured after 60 mins by cell based TR-FRET assay relative to control

STRUCTURE_AS_SMILES: O=C(Nc1ccc(Oc2ccc(F)cc2)cc1)N1CCc2ncccc2[C@@H]1c1ccc(Cl)cc1
IC50, nM: 650

----------
Measured half-life by item
PROTOCOL_TEXT: Half life in Wistar rat at 2 mg/kg, po after 8 to 72 hrs by LC-MS/MS analysis
Assay type: ADME, organism-based
STUDY_CONDITIONS: in vivo
MEASURED_ENDPOINT: half-life (h)

STRUCTURE_AS_SMILES: O=C(Nc1cnc(Oc2ccc(F)cc2)nc1)N1CCc2ncccc2[C@@H]1c1ccc(F)cc1
OBSERVED_RESULT: 33
--
STRUCTURE_AS_SMILES: O=C(Nc1ccc(Oc2ccc(F)cc2)cc1)N1CCc2ncccc2[C@@H]1c1ccc(Cl)cc1
OBSERVED_RESULT: 12

----------
STUDY_SYSTEM: Lutropin-choriogonadotropic hormone receptor (Mus musculus, UniProt P30730)
Sequence (P30730 whole entry): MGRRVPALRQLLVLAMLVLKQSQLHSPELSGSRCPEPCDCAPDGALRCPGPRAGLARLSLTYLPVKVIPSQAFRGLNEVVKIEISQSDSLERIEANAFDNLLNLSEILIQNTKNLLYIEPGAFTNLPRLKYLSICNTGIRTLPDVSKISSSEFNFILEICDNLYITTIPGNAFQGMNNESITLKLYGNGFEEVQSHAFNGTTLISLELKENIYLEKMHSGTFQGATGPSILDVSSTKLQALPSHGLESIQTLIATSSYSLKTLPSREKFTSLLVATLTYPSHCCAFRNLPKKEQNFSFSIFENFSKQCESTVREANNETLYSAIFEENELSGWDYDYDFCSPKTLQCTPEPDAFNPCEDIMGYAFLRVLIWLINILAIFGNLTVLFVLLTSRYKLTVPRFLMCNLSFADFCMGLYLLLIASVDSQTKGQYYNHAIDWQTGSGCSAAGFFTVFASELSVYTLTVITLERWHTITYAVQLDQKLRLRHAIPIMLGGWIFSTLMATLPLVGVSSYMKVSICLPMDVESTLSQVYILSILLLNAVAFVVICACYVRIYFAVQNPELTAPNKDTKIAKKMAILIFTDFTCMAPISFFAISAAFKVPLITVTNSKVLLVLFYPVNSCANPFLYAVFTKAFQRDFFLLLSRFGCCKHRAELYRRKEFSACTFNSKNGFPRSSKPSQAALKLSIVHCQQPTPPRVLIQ
PROTOCOL_TEXT: Antagonist activity at luteinizing hormone receptor in mouse MLTC-1 cells assessed as reduction in agonist-induced cAMP production preincubated for 30 mins followed by agonist solution addition and measured after 30 mins by cell based TR-FRET assay
MEASURED_ENDPOINT: IC50

COMPOUND: COc1ccc(C2c3ccsc3CCN2C(=O)Nc2cc(Cl)cc(Cl)c2)cc1 (racemic)
OBSERVED_RESULT: > 30 µM
--
COMPOUND: COc1ccc([C@@H]2c3ccsc3CCN2C(=O)Nc2cc(Cl)cc(Cl)c2)cc1
OBSERVED_RESULT: > 30 µM
--
COMPOUND: COc1ccc([C@H]2c3ccsc3CCN2C(=O)Nc2cc(Cl)cc(Cl)c2)cc1
OBSERVED_RESULT: > 30 µM

----------
Below, each entry is listed with its recorded IC50.
STUDY_SYSTEM: Follicle-stimulating hormone receptor (Homo sapiens, UniProt P23945)
Sequence (P23945 whole entry): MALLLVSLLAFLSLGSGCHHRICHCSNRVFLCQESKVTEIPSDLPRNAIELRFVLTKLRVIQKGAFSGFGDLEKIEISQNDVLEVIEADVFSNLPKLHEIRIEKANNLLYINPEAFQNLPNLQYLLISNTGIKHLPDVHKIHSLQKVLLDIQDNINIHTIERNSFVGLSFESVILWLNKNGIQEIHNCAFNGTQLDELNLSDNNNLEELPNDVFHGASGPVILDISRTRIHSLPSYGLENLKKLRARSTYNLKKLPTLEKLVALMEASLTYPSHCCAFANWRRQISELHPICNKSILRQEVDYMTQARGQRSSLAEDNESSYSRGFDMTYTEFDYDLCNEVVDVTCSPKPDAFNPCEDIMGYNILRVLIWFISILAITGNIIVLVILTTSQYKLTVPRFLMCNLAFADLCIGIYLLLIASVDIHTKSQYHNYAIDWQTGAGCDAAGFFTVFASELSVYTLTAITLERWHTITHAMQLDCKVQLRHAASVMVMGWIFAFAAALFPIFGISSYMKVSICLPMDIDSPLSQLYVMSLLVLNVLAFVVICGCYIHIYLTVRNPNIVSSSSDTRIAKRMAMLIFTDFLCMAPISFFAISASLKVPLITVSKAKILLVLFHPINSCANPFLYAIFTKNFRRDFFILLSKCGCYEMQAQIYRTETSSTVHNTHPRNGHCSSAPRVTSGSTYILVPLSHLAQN
PROTOCOL_TEXT: Antagonist activity at human follicle stimulating hormone receptor assessed as reduction in agonist-induced cAMP production preincubated for 20 mins followed by agonist solution addition and measured after 120 mins by cell based TR-FRET assay

COMPOUND: O=C(Nc1ccc(Oc2ccc(F)cc2)cc1)N1CCc2ncccc2[C@@H]1c1ccc(Cl)cc1
IC50: > 16 µM

COMPOUND: COc1ccc(C2c3ccsc3CCN2C(=O)Nc2cc(Cl)cc(Cl)c2)cc1 (racemic)
IC50: > 16.5 µM

COMPOUND: COc1ccc([C@@H]2c3ccsc3CCN2C(=O)Nc2cc(Cl)cc(Cl)c2)cc1
IC50: > 16.5 µM

COMPOUND: COc1ccc([C@H]2c3ccsc3CCN2C(=O)Nc2cc(Cl)cc(Cl)c2)cc1
IC50: > 16.5 µM

COMPOUND: O=C(Nc1cnc(Oc2ccc(F)cc2)nc1)N1CCc2ncccc2[C@@H]1c1ccc(F)cc1 [BAY-899]
IC50: > 16 µM

----------
STUDY_SYSTEM: UniProtKB P22888
PROTOCOL_TEXT: Negative allosteric modulation of human luteinizing hormone receptor assessed as reduction in glycoprotein human luteinizing hormone-induced agonist activity preincubated for 20 mins followed by 100 times EC80 of agonist addition and measured after 60 mins by cell based TR-FRET assay relative to control
pIC50: −log10 of the molar value.

STRUCTURE_AS_SMILES: O=C(Nc1ccc(Oc2ccc(F)cc2)cc1)N1CCc2ncccc2[C@@H]1c1ccc(Cl)cc1
STUDY_SYSTEM: UniProtKB P22888
pIC50: 5.60

----------
STUDY_SYSTEM: Luteinizing hormone/choriogondaotropin receptor (Macaca fascicularis, UniProt F5A8F7)
Sequence (F5A8F7 whole entry): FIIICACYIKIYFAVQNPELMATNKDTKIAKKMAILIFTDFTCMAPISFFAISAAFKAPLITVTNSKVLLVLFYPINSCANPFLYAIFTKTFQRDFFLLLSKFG
PROTOCOL_TEXT: Antagonist activity at cynomolgus monkey luteinizing hormone receptor expressed in HEK293 cells assessed as reduction in agonist-induced cAMP production preincubated for 30 mins followed by agonist solution addition and measured after 30 mins by cell based TR-FRET assay

STRUCTURE_AS_SMILES: O=C(Nc1ccc(Oc2ccc(F)cc2)cc1)N1CCc2ncccc2[C@@H]1c1ccc(Cl)cc1
IC50, nM: 78

----------
Attribute: Fh at 1 µM
PROTOCOL_TEXT: Maximum oral bioavailability in human liver microsomes based well stirred liver model at 1 uM measured after 2 to 60 mins in presence of glucose-6-phosphate by LC-MS/MS analysis
Type: ADME, Microsome
STUDY_CONDITIONS: read-out: Fmax
MEASURED_ENDPOINT: Fh at 1 µM (%)

COMPOUND: O=C(Nc1cc(Cl)cc(Cl)c1)N1CCc2sccc2C1c1ccc(C(F)(F)F)cc1 (racemic)
OBSERVED_RESULT: 51

COMPOUND: Cc1ccc(C2c3ccsc3CCN2C(=O)Nc2cc(Cl)cc(Cl)c2)cc1 (racemic)
OBSERVED_RESULT: 8

COMPOUND: O=C(Nc1cc(Cl)cc(Cl)c1)N1CCc2sccc2C1c1ccc(Cl)cc1 (racemic)
OBSERVED_RESULT: 48

COMPOUND: O=C(Nc1ccc(Oc2ccc(F)cc2)cc1)N1CCc2ncccc2[C@@H]1c1ccc(Cl)cc1
OBSERVED_RESULT: 85

COMPOUND: COc1ccc(C2c3ccsc3CCN2C(=O)Nc2cc(Cl)cc(Cl)c2)cc1 (racemic)
OBSERVED_RESULT: 3

COMPOUND: O=C(Nc1cc(Cl)cc(Cl)c1)N1CCc2sccc2C1c1ccc(F)c(F)c1 (racemic)
OBSERVED_RESULT: 40

COMPOUND: O=C(Nc1ccc(F)c(OC(F)(F)F)c1)N1CCc2sccc2C1c1ccc(Cl)cc1 (racemic)
OBSERVED_RESULT: 42

COMPOUND: O=C(Nc1cc(Cl)cc(Cl)c1)N1CCc2sccc2C1c1cccnc1 (racemic)
OBSERVED_RESULT: 11

COMPOUND: COc1ccc(C2c3ccsc3CCN2C(=O)Nc2cccc(Cl)c2)cc1 (racemic)
OBSERVED_RESULT: 7

COMPOUND: COc1ccc(C2c3ccsc3CCN2C(=O)Nc2cc(OC)cc(OC)c2)cc1 (racemic)
OBSERVED_RESULT: 3

COMPOUND: O=C(Nc1ccc(Oc2ccc(F)cc2)nc1)N1CCc2ncccc2[C@@H]1c1ccc(F)cc1
OBSERVED_RESULT: 83

COMPOUND: O=C(Nc1ccc(Oc2ccc(F)cc2)cc1)N1CCc2sccc2C1c1ccc(Cl)cc1 (racemic)
OBSERVED_RESULT: 56

COMPOUND: O=C(Nc1ccccc1)N1CCc2sccc2C1c1ccc(Cl)cc1 (racemic)
OBSERVED_RESULT: 26

COMPOUND: COc1ccc(C2c3ccsc3CCN2C(=O)Nc2ccc(Cl)cc2)cc1 (racemic)
OBSERVED_RESULT: 18

COMPOUND: O=C(Nc1ccc(Oc2ccc(F)cc2)cc1)N1CCc2ncccc2[C@@H]1c1ccc(F)cc1
OBSERVED_RESULT: 75

COMPOUND: O=C(Nc1cc(Cl)cc(Cl)c1)N1CCc2sccc2C1c1ccccc1F (racemic)
OBSERVED_RESULT: 17

COMPOUND: O=C(Nc1cnc(Oc2ccc(F)cc2)nc1)N1CCc2ncccc2[C@@H]1c1ccc(F)cc1 [BAY-899]
OBSERVED_RESULT: 89

----------
Below: a set of entries, each annotated with reported half-life.
PROTOCOL_TEXT: Half life in Wistar rat at 0.5 mg/kg, iv after 2 to 72 hrs by LC-MS/MS analysis
Format: ADME, organism-based
STUDY_CONDITIONS: in vivo
MEASURED_ENDPOINT: half-life (h)

MOLECULE: O=C(Nc1ccc(Oc2ccc(F)cc2)cc1)N1CCc2ncccc2[C@@H]1c1ccc(Cl)cc1
OBSERVED_RESULT: 11
//
MOLECULE: O=C(Nc1cnc(Oc2ccc(F)cc2)nc1)N1CCc2ncccc2[C@@H]1c1ccc(F)cc1 [BAY-899]
OBSERVED_RESULT: 31

----------
STUDY_SYSTEM: UniProt:P22888
PROTOCOL_TEXT: Negative allosteric modulation of human luteinizing hormone receptor assessed as reduction in Org 43553-induced agonist activity preincubated for 20 mins followed by 16 times EC80 of agonist addition and measured after 60 mins by cell based TR-FRET assay relative to control
pIC50: −log10 of the molar value.

STRUCTURE_AS_SMILES: O=C(Nc1ccc(Oc2ccc(F)cc2)cc1)N1CCc2ncccc2[C@@H]1c1ccc(Cl)cc1
pIC50: 5.77

----------
STUDY_SYSTEM: Lutropin-choriogonadotropic hormone receptor (Homo sapiens)
PROTOCOL_TEXT: Antagonist activity at human luteinizing hormone receptor assessed as reduction in agonist-induced cAMP production preincubated for 20 mins followed by agonist solution addition after 60 mins by cell based TR-FRET assay
Format: functional
pIC50: −log10 of the molar value.
Kind request: treat 6 as inclusive, so pIC50 at 6 or higher is rule met, anything lower is rule not met.

COMPOUND: COc1ccc([C@@H]2c3ccsc3CCN2C(=O)Nc2cc(Cl)cc(Cl)c2)cc1
STUDY_SYSTEM: Lutropin-choriogonadotropic hormone receptor (Homo sapiens)
CAT: rule not met
//
COMPOUND: O=C(Nc1cc(Cl)cc(Cl)c1)N1CCc2sccc2C1c1ccccc1 (racemic)
STUDY_SYSTEM: Lutropin-choriogonadotropic hormone receptor (Homo sapiens)
CAT: rule not met
//
COMPOUND: NC(=O)c1ccc(C2c3ccsc3CCN2C(=O)Nc2cc(Cl)cc(Cl)c2)cc1 (racemic)
STUDY_SYSTEM: Lutropin-choriogonadotropic hormone receptor (Homo sapiens)
CAT: rule not met
//
COMPOUND: O=C(Nc1ccc(Oc2ccc(F)cc2)cc1)N1CCc2ncccc2[C@@H]1c1ccc(Cl)cc1
STUDY_SYSTEM: Lutropin-choriogonadotropic hormone receptor (Homo sapiens)
CAT: rule met
//
COMPOUND: COc1ccc(C2c3ccsc3CCN2C(=O)Nc2ccc(Cl)cc2)cc1 (racemic)
STUDY_SYSTEM: Lutropin-choriogonadotropic hormone receptor (Homo sapiens)
CAT: rule met
//
COMPOUND: COc1cc(NC(=O)N2CCc3sccc3[C@@H]2c2ccccc2)cc(OC)c1
STUDY_SYSTEM: Lutropin-choriogonadotropic hormone receptor (Homo sapiens)
CAT: rule met
//
COMPOUND: COc1ccc(C2c3ccsc3CCN2C(=O)Nc2cc(C)cc(C)c2)cc1 (racemic)
STUDY_SYSTEM: Lutropin-choriogonadotropic hormone receptor (Homo sapiens)
CAT: rule met
//
COMPOUND: O=C(Nc1cc(Cl)cc(Cl)c1)N1CCc2sccc2C1c1ccc(Cl)cc1 (racemic)
STUDY_SYSTEM: Lutropin-choriogonadotropic hormone receptor (Homo sapiens)
CAT: rule met
//
COMPOUND: COc1ccc([C@H]2c3ccsc3CCN2C(=O)Nc2cc(Cl)cc(Cl)c2)cc1
STUDY_SYSTEM: Lutropin-choriogonadotropic hormone receptor (Homo sapiens)
CAT: rule met
